System: pancreatic cancer cells (BxPC3)
Assay procedure: In vitro cytotoxicity, CellTiter-Glo 96 h, BxPC3
Measurement setup: Homo sapiens, BXPC-3, read-out: Cytotoxic potency (IC50 class), BxPC3
pIC50: −log10 of the molar value.
Observation type: pIC50

smiles_record=CC[C@@]1(O)C(=O)OCc2c1cc1n(c2=O)Cc2c-1nc1cc3c(cc1c2CNCCc1ccccc1)OCO3 observation_type=pIC50 measurement="7.00 to 8.00"
smiles_record=CC[C@@]1(O)C(=O)OCc2c1cc1n(c2=O)Cc2c-1nc1cc3c(cc1c2CNCCCCO)OCO3 observation_type=pIC50 measurement="7.00 to 8.00"
smiles_record=CC[C@@]1(O)C(=O)OCc2c1cc1n(c2=O)Cc2c-1nc1cc3c(cc1c2CNC(C)C)OCO3 observation_type=pIC50 measurement="8.00 to 9.00"
smiles_record=CC[C@@]1(O)C(=O)OCc2c1cc1n(c2=O)Cc2cc3cc4c(cc3nc2-1)OCO4 observation_type=pIC50 measurement="8.00 to 9.00"
smiles_record=CC[C@@]1(O)C(=O)OCc2c1cc1n(c2=O)Cc2c-1nc1cc3c(cc1c2CNCCOCCOCCN)OCO3 observation_type=pIC50 measurement="8.00 to 9.00"
smiles_record=CC[C@@]1(O)C(=O)OCc2c1cc1n(c2=O)Cc2c-1nc1cc3c(cc1c2CNCCNC(C)C)OCO3 observation_type=pIC50 measurement="6.00 to 7.00"
smiles_record=CC[C@@]1(O)C(=O)OCc2c1cc1n(c2=O)Cc2c-1nc1cc3c(cc1c2C1CCCC1)OCO3 observation_type=pIC50 measurement="8.00 to 9.00"
smiles_record=CC[C@@]1(O)C(=O)OCc2c1cc1n(c2=O)Cc2c-1nc1cc3c(cc1c2C(C)C)OCO3 observation_type=pIC50 measurement="8.00 to 9.00"
smiles_record=CCCc1c2c(nc3cc4c(cc13)OCO4)-c1cc3c(c(=O)n1C2)COC(=O)[C@]3(O)CC observation_type=pIC50 measurement="8.00 to 9.00"
smiles_record=CC[C@@]1(O)C(=O)OCc2c1cc1n(c2=O)Cc2c-1nc1cc3c(cc1c2-c1ccc(F)cc1)OCO3 observation_type=pIC50 measurement="8.00 to 9.00"
smiles_record=CC[C@@]1(O)C(=O)OCc2c1cc1n(c2=O)Cc2c-1nc1cc3c(cc1c2CN(C)CCN(C)C)OCO3 observation_type=pIC50 measurement="7.00 to 8.00"
smiles_record=CCCCCc1c2c(nc3cc4c(cc13)OCO4)-c1cc3c(c(=O)n1C2)COC(=O)[C@]3(O)CC observation_type=pIC50 measurement="8.00 to 9.00"
smiles_record=CCCCNCc1c2c(nc3cc4c(cc13)OCO4)-c1cc3c(c(=O)n1C2)COC(=O)[C@]3(O)CC observation_type=pIC50 measurement="8.00 to 9.00"
smiles_record=CCNCc1c2c(nc3cc4c(cc13)OCO4)-c1cc3c(c(=O)n1C2)COC(=O)[C@]3(O)CC observation_type=pIC50 measurement="8.00 to 9.00"
smiles_record=CC[C@@]1(O)C(=O)OCc2c1cc1n(c2=O)Cc2c-1nc1cc3c(cc1c2CNCc1ccc(N)cc1)OCO3 observation_type=pIC50 measurement="7.00 to 8.00"

---

Each record here notes measured IC50.
Test system: Burkitt's lymphoma cells (Ramos)
Assay procedure: In vitro cytotoxicity, CellTiter-Glo 96 h, Ramos
Measurement setup: Homo sapiens, read-out: Cytotoxic potency as free drug, IC50, Ramos
Observation type: IC50

molecule="CC[C@@]1(O)C(=O)OCc2c1cc1n(c2=O)Cc2c-1nc1cc(F)c(C)c3c1c2[C@@H](NC(=O)CO)CC3 [Compound 8a]" target_system="Burkitt's lymphoma cells (Ramos)" measurement="1 to 10 nM"
molecule="CC[C@@]1(O)C(=O)OCc2c1cc1n(c2=O)Cc2c-1nc1cc3c(cc1c2CNC12CC4CC(CC(C4)C1)C2)OCO3 [Compound 5s]" target_system="Burkitt's lymphoma cells (Ramos)" measurement="10 to 100 nM"
molecule="CC[C@@]1(O)C(=O)OCc2c1cc1n(c2=O)Cc2c-1nc1cc3c(cc1c2CN(CCN)CCO)OCO3 [Compound 5q]" target_system="Burkitt's lymphoma cells (Ramos)" measurement="10 to 100 nM"
molecule="CC[C@@]1(O)C(=O)OCc2c1cc1n(c2=O)Cc2c-1nc1cc3c(cc1c2CNCc1ccccc1)OCO3 [Compound 5j]" target_system="Burkitt's lymphoma cells (Ramos)" measurement="1 to 10 nM"
molecule="CC[C@@]1(O)C(=O)OCc2c1cc1n(c2=O)Cc2c-1nc1cc3c(cc1c2CN(C)C(=O)CN)OCO3 [Compound 4c]" target_system="Burkitt's lymphoma cells (Ramos)" measurement="1 to 10 nM"
molecule="CCCc1c2c(nc3cc4c(cc13)OCO4)-c1cc3c(c(=O)n1C2)COC(=O)[C@]3(O)CC [Compound 6a]" target_system="Burkitt's lymphoma cells (Ramos)" measurement="0.1 to 1 nM"
molecule="CC[C@@]1(O)C(=O)OCc2c1cc1n(c2=O)Cc2c-1nc1cc3c(cc1c2C(C)C)OCO3 [Compound 6c]" target_system="Burkitt's lymphoma cells (Ramos)" measurement="0.1 to 1 nM"
molecule="CC[C@@]1(O)C(=O)OCc2c1cc1n(c2=O)Cc2c-1nc1cc3c(cc1c2-c1ccccc1)OCO3 [Compound 6d]" target_system="Burkitt's lymphoma cells (Ramos)" measurement="0.1 to 1 nM"
molecule="CC[C@@]1(O)C(=O)OCc2c1cc1n(c2=O)Cc2c-1nc1cc3c(cc1c2CNCCCCO)OCO3 [Compound 5f]" target_system="Burkitt's lymphoma cells (Ramos)" measurement="1 to 10 nM"
molecule="CC[C@@]1(O)C(=O)OCc2c1cc1n(c2=O)Cc2c-1nc1cc3c(cc1c2CNCC1CCNCC1)OCO3 [Compound 5u]" target_system="Burkitt's lymphoma cells (Ramos)" measurement="1 to 10 nM"
molecule="CC[C@@]1(O)C(=O)OCc2c1cc1n(c2=O)Cc2c-1nc1cc3c(cc1c2CN(CCO)CCO)OCO3 [Compound 5p]" target_system="Burkitt's lymphoma cells (Ramos)" measurement="1 to 10 nM"
molecule="CC[C@@]1(O)C(=O)OCc2c1cc1n(c2=O)Cc2c-1nc1cc3c(cc1c2CNCc1ccc(OC)cc1)OCO3 [Compound 5l]" target_system="Burkitt's lymphoma cells (Ramos)" measurement="1 to 10 nM"
molecule="CC[C@@]1(O)C(=O)OCc2c1cc1n(c2=O)Cc2c-1nc1cc3c(cc1c2CC(C)C)OCO3 [Compound 6f]" target_system="Burkitt's lymphoma cells (Ramos)" measurement="1 to 10 nM"
molecule="CCCCNCc1c2c(nc3cc4c(cc13)OCO4)-c1cc3c(c(=O)n1C2)COC(=O)[C@]3(O)CC [Compound 5k]" target_system="Burkitt's lymphoma cells (Ramos)" measurement="1 to 10 nM"
molecule="CC[C@@]1(O)C(=O)OCc2c1cc1n(c2=O)Cc2c-1nc1cc3c(cc1c2C(C)(C)C)OCO3 [Compound 6l]" target_system="Burkitt's lymphoma cells (Ramos)" measurement="0.1 to 1 nM"

---

System: multiple myeloma cells (MM.1R)
Assay procedure: In vitro cytotoxicity, CellTiter-Glo 96 h, MM.1R
Measurement setup: read-out: Cytotoxic potency (IC50 class), MM.1R
Each record here notes measured IC50.
Observation type: IC50

smiles_record=CC[C@@]1(O)C(=O)OCc2c1cc1n(c2=O)Cc2c-1nc1cc3c(cc1c2CN(C)CCN(C)C)OCO3 observation_type=IC50 measurement="1 to 10 nM"
smiles_record=CCc1c2c(nc3ccc(O)cc13)-c1cc3c(c(=O)n1C2)COC(=O)[C@]3(O)CC observation_type=IC50 measurement="1 to 10 nM"
smiles_record=CCNCc1c2c(nc3cc4c(cc13)OCO4)-c1cc3c(c(=O)n1C2)COC(=O)[C@]3(O)CC observation_type=IC50 measurement="1 to 10 nM"
smiles_record=CC[C@@]1(O)C(=O)OCc2c1cc1n(c2=O)Cc2c-1nc1cc3c(cc1c2CNC12CC4CC(CC(C4)C1)C2)OCO3 observation_type=IC50 measurement="10 to 100 nM"
smiles_record=CCC(CC)Cc1c2c(nc3cc4c(cc13)OCO4)-c1cc3c(c(=O)n1C2)COC(=O)[C@]3(O)CC observation_type=IC50 measurement="1 to 10 nM"
smiles_record=CCCc1c2c(nc3cc4c(cc13)OCO4)-c1cc3c(c(=O)n1C2)COC(=O)[C@]3(O)CC observation_type=IC50 measurement="1 to 10 nM"
smiles_record=CC[C@@]1(O)C(=O)OCc2c1cc1n(c2=O)Cc2c-1nc1cc3c(cc1c2C(C)(C)C)OCO3 observation_type=IC50 measurement="1 to 10 nM"
smiles_record=CC[C@@]1(O)C(=O)OCc2c1cc1n(c2=O)Cc2c-1nc1cc3c(cc1c2CNC(C)C)OCO3 observation_type=IC50 measurement="1 to 10 nM"
smiles_record=CC[C@@]1(O)C(=O)OCc2c1cc1n(c2=O)Cc2c-1nc1cc3c(cc1c2CN(C)CCNC)OCO3 observation_type=IC50 measurement="10 to 100 nM"
smiles_record=CC[C@@]1(O)C(=O)OCc2c1cc1n(c2=O)Cc2c-1nc1cc3c(cc1c2CNC(=O)CN)OCO3 observation_type=IC50 measurement="10 to 100 nM"
smiles_record=CC[C@@]1(O)C(=O)OCc2c1cc1n(c2=O)Cc2c-1nc1cc3c(cc1c2CN1CCOCC1)OCO3 observation_type=IC50 measurement="1 to 10 nM"
smiles_record=CC[C@@]1(O)C(=O)OCc2c1cc1n(c2=O)Cc2c-1nc1cc3c(cc1c2CNCCC(c1ccccc1)c1ccccc1)OCO3 observation_type=IC50 measurement="10 to 100 nM"
smiles_record=CC[C@@]1(O)C(=O)OCc2c1cc1n(c2=O)Cc2c-1nc1cc3c(cc1c2CN1CCN(C)CC1)OCO3 observation_type=IC50 measurement="1 to 10 nM"
smiles_record=CC[C@@]1(O)C(=O)OCc2c1cc1n(c2=O)Cc2c-1nc1cc3c(cc1c2CNC(=O)CCN)OCO3 observation_type=IC50 measurement="1 to 10 nM"
smiles_record=CC[C@@]1(O)C(=O)OCc2c1cc1n(c2=O)Cc2c-1nc1cc3c(cc1c2C)OCO3 observation_type=IC50 measurement="0.1 to 1 nM"
